These entries and their values trace back to PubChem BioAssay (NCI).

System: SNB-19 CNS
Test: NCI tumour cell line growth inhibition, 48 h
Readout label: TGI

INSERT INTO results (compound, system_tested, readout_label, observed_result) VALUES
  ('CCC1CN2CCc3cc(OC)c(OC)cc3C2CC1CC1c2cc(OC)c(OC)cc2CCN1C(=O)C1CCCN1 (stereo not given)', 'SNB-19 CNS', 'TGI', '> 100 µM'),
  ('COC(=O)CN1c2nc(C#N)c(C#N)nc2N(CC(=O)OC)c2nc(C#N)c(C#N)nc21', 'SNB-19 CNS', 'TGI', '> 65.9 µM'),
  ('O=C1CC(C(O)(C(F)(F)F)C(F)(F)Cl)CCC1C(O)(C(F)(F)F)C(F)(F)Cl (stereo not given)', 'SNB-19 CNS', 'TGI', '> 10 µM');

Dear colleague, I am looking for the recorded TGI of the following compound: C=Cc1ccc(C)[n+](C[Si](C)(C)O[Si](C)(C)C[n+]2cc(C=C)ccc2C)c1
> 100 µM

Let us now turn to COc1c(O)c2c3c(c(C)cc(O)c3c1O)C(=O)C(O)(C(C)(C)C(C)=O)C2=O (stereo not given)
> 100 µM
